Where do these numbers come from? They come from the supplement of paper PMC9233669.

# Test system: biotinyl-Phe-oxazolone
# ASSAY_NOTES: self-aminoacylation, catalytic enhancement (BFO) (fold over background); higher = more active; k-Seq, kA / k0A0; sequences stand for … in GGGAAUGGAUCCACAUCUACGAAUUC…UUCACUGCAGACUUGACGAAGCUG
Variants at the floor of the assay were thinned out.
Entry flag: fulfilled if self-aminoacylation reaches 8; not fulfilled if it does not.

CONSTRUCT_SEQUENCE: AUUCAUCUAGGUCCUCGGGUG [Fam2.2 aminoacylation ribozyme variant]
LABEL_CLASS: fulfilled

Task: Hi, just wondering whether AUGAUUGCUAAUAGUCGCAAG [Fam3.1 aminoacylation ribozyme variant] shows self-aminoacylation of 8 or higher.
Result: not fulfilled

Task: Hi, just wondering whether AUUCACCAAGGUCAUCCGGUG [Fam2.2 aminoacylation ribozyme variant] shows self-aminoacylation of 8 or higher.
Result: fulfilled

Task: Hi, just wondering whether AUUCGCCUAGGUCAUCGGGUG [Fam2.2 aminoacylation ribozyme variant] shows self-aminoacylation of 8 or higher.
Result: fulfilled

Task: Hi, just wondering whether ACUACCCUGGUCAUCGAGUUA [Fam2.1 aminoacylation ribozyme variant] shows self-aminoacylation of 8 or higher.
Result: fulfilled

====

# System: biotinyl-Trp-oxazolone
# ASSAY_NOTES: self-aminoacylation, catalytic enhancement (BWO) (fold over background); higher = more active; k-Seq, kA / k0A0; sequences stand for … in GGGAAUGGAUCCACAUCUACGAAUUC…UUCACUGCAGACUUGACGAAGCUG
This sample holds only a part of the variants without activity.
ENDPOINT_LABEL: self-aminoacylation
Provide a numeric answer; units are not to be included.

CONSTRUCT_SEQUENCE: AUUACCCUGGCCCUCGAGUGA [Fam2.1 aminoacylation ribozyme variant]
TARGET_OF_ASSAY: biotinyl-Trp-oxazolone
RECORDED_VALUE: 3.6
--
CONSTRUCT_SEQUENCE: AAGUUUGCUAAUAGUAGCCAG [Fam3.1 aminoacylation ribozyme variant]
TARGET_OF_ASSAY: biotinyl-Trp-oxazolone
RECORDED_VALUE: 2.24
--
CONSTRUCT_SEQUENCE: AAUCACCUAGGUCAGCGGGUG [Fam2.2 aminoacylation ribozyme variant]
TARGET_OF_ASSAY: biotinyl-Trp-oxazolone
RECORDED_VALUE: 4.58
--
CONSTRUCT_SEQUENCE: AUCACCCUCGUCAUCGAGUGA [Fam2.1 aminoacylation ribozyme variant]
TARGET_OF_ASSAY: biotinyl-Trp-oxazolone
RECORDED_VALUE: 3.31
--
CONSTRUCT_SEQUENCE: AAGCUUGCAAAUAGUCGCAAG [Fam3.1 aminoacylation ribozyme variant]
TARGET_OF_ASSAY: biotinyl-Trp-oxazolone
RECORDED_VALUE: 2.14

Task: Quick check: self-aminoacylation of CCACACUUUAAACAAUCGGUC [Fam1B.1 aminoacylation ribozyme variant] ?
Result: 1.3

Task: Quick check: self-aminoacylation of AUCCACCGAGGUCAUCGGGUG [Fam2.2 aminoacylation ribozyme variant] ?
Result: 7.06

====

# Test system: biotinyl-Trp-oxazolone
# ASSAY_NOTES: self-aminoacylation, catalytic enhancement (BWO) (fold over background); higher = more active; k-Seq, kA / k0A0; sequences stand for … in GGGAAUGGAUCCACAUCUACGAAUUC…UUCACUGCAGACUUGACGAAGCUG
This sample holds only a part of the variants without activity.
Entry class follows self-aminoacylation: 0 (below 1), 1 (1 to below 6), 2 (6 or more)

Use the examples below as a reference point.
CONSTRUCT_SEQUENCE: AUUACCAUGGUCAUUGAGUGA [Fam2.1 aminoacylation ribozyme variant]
LABEL_CLASS: 2
--
CONSTRUCT_SEQUENCE: AUUACCCUGUUCAUCCAGUGA [Fam2.1 aminoacylation ribozyme variant]
LABEL_CLASS: 2
--
CONSTRUCT_SEQUENCE: AUUACCUUGGUCAUCGAGUUA [Fam2.1 aminoacylation ribozyme variant]
LABEL_CLASS: 0
--
CONSTRUCT_SEQUENCE: AUUCACCUAGGUAAUUGGGUG [Fam2.2 aminoacylation ribozyme variant]
LABEL_CLASS: 1
--
CONSTRUCT_SEQUENCE: CAACUUCCAACAAUCGGUCUG [Fam1A.1 aminoacylation ribozyme variant]
LABEL_CLASS: 1
--
CONSTRUCT_SEQUENCE: AAGUUUGCCAGUAGUCGCAAG [Fam3.1 aminoacylation ribozyme variant]
LABEL_CLASS: 1
--
CONSTRUCT_SEQUENCE: AAGUUUGUUAGUAGUCGCAAG [Fam3.1 aminoacylation ribozyme variant]
LABEL_CLASS: 0
--
CONSTRUCT_SEQUENCE: CUUCACUUAGGUCAUCGGGUG [Fam2.2 aminoacylation ribozyme variant]
LABEL_CLASS: 1

Task: Lab log: AUUCUCCUCGGUCAUCGGGUG [Fam2.2 aminoacylation ribozyme variant] — assign self-aminoacylation category
Result: 2

Task: Lab log: AUUACCCUGGUCGGCGAGUGA [Fam2.1 aminoacylation ribozyme variant] — assign self-aminoacylation category
Result: 2

Task: Lab log: GUUUCCCUGGUCAUCGAGUGA [Fam2.1 aminoacylation ribozyme variant] — assign self-aminoacylation category
Result: 2

Task: Lab log: CCACACUUCAACCAAUCAGUC [Fam1B.1 aminoacylation ribozyme variant] — assign self-aminoacylation category
Result: 2

Task: Lab log: CUACUUCAAACAAUCGGCCUC [Fam1A.1 aminoacylation ribozyme variant] — assign self-aminoacylation category
Result: 2

Task: Lab log: CUACUUCAAACAAUCGGUCCG [Fam1A.1 aminoacylation ribozyme variant] — assign self-aminoacylation category
Result: 1

Task: Lab log: UCACACUUCAAGCAACCGGUC [Fam1B.1 aminoacylation ribozyme variant] — assign self-aminoacylation category
Result: 0

Task: Lab log: AAGUUUGCUAAUAGUCACAAC [Fam3.1 aminoacylation ribozyme variant] — assign self-aminoacylation category
Result: 0

Task: Lab log: AUUAACCUGGUCAUCGGGUGA [Fam2.1 aminoacylation ribozyme variant] — assign self-aminoacylation category
Result: 2
